Tested on: Haemophilus influenzae
Assay: Antibacterial activity against Haemophilus influenzae
Type: functional
Each entry below lists one item and its recorded MIC50 value.
Number in µg/mL, nothing else.

[[record]]
cpd_smiles = "CCOC(=O)/C=C1\\NC(=O)[C@@H]1Cl"
measured_target = "Haemophilus influenzae"
reported = 32


Ask | Tell me measured MIC50 for CC1(C)S[C@@H]2[C@H](NC(=O)[C@H](N)c3ccc(O)cc3)C(=O)N2[C@H]1C(=O)O please.
Reply | 1

Ask | Tell me measured MIC50 for C[C@@H](O[Si](C)(C)C(C)(C)C)[C@H]1C(=O)N/C1=C/C(=O)OCc1ccccc1 please.
Reply | 128

----------
Test system: Haemophilus influenzae
Assay: Antibacterial activity against Haemophilus influenzae
Assay type: functional
QUANTITY: MIC50

Look over these answered cases.
[[record]]
cpd_smiles = "O=C(O)/C=C1\\NC(=O)[C@@H]1Cl"
measured_target = "Haemophilus influenzae"
quantity = "MIC50"
reported = "64 µg/mL"

[[record]]
cpd_smiles = "C[C@@H](O[Si](C)(C)C(C)(C)C)[C@H]1C(=O)N/C1=C\\C(=O)OCc1cc(C(F)(F)F)cc(C(F)(F)F)c1"
measured_target = "Haemophilus influenzae"
quantity = "MIC50"
reported = "> 128 µg/mL"

[[record]]
cpd_smiles = "CCOC(=O)/C=C1\\NC(=O)[C@@H]1[C@@H](C)OC(=O)c1ccccc1"
measured_target = "Haemophilus influenzae"
quantity = "MIC50"
reported = "> 128 µg/mL"

[[record]]
cpd_smiles = "CO/N=C(\\C(=O)N[C@@H]1C(=O)N2C(C(=O)O)=C(CSc3nc(=O)c(O)nn3C)CS[C@H]12)c1csc(N)n1"
measured_target = "Haemophilus influenzae"
quantity = "MIC50"
reported = "< 0.06 µg/mL"

[[record]]
cpd_smiles = "C[C@@H](O[Si](C)(C)C(C)(C)C)[C@H]1C(=O)N/C1=C\\C(=O)O"
measured_target = "Haemophilus influenzae"
quantity = "MIC50"
reported = "> 128 µg/mL"


Ask | Specify reported MIC50 for the compound shown: O=C(/C=C1\NC(=O)[C@@H]1Cl)OCc1ccccc1
Reply | 1 µg/mL

Ask | Give MIC50 for the following compound: CCOC(=O)/C=C1\NC(=O)[C@@H]1[C@@H](C)O[Si](C)(C)C(C)(C)C
Reply | 128 µg/mL

Ask | Return MIC50 (reported value) for this compound: COc1cc(C(=O)O[C@H](C)[C@H]2C(=O)N/C2=C\C(=O)OCc2ccccc2)cc(OC)c1O
Reply | 64 µg/mL

Ask | Consider the compound CCOC(=O)/C=C1\NC(=O)[C@@H]1[C@@H](C)OC(=O)c1cc(O)c(O)c(O)c1 . State its measured MIC50.
Reply | 128 µg/mL

----------
Assay: Viability of human TPC1 cell line at 32 uM after 21 hrs
Format: cell-based
Conditions: TPC1 cells, read-out: Activity
QUANTITY: viability at 21 h, 32 µM

Ask | Please give measured viability at 21 h, 32 µM of the following entry: COc1cc(C(=O)O[C@H](C)[C@H]2C(=O)N/C2=C\C(=O)OCc2ccccc2)cc(OC)c1O
Reply | 81%

----------
System: Staphylococcus aureus
Test: Antibacterial activity against methicillin-susceptible Staphylococcus aureus
Type: functional
Examples of compounds with documented MIC90 follow.
Write it as a number; the unit µg/mL goes unstated.

Use these answered entries as a reference point.
[[record]]
cpd_smiles = "O=C(O)/C=C1\\NC(=O)[C@@H]1Cl"
quantity = "MIC90"
unit_spec = "µg/mL"
reported = 64

[[record]]
cpd_smiles = "COc1cc(C(=O)O[C@H](C)[C@H]2C(=O)N/C2=C\\C(=O)OCc2ccccc2)cc(OC)c1OC"
quantity = "MIC90"
unit_spec = "µg/mL"
reported = 16

[[record]]
cpd_smiles = "C[C@@H](O[Si](C)(C)C(C)(C)C)[C@H]1C(=O)N/C1=C\\C(=O)Oc1cc(O)cc(O)c1"
quantity = "MIC90"
unit_spec = "µg/mL"
reported = 32

[[record]]
cpd_smiles = "O=C(/C=C1\\NC(=O)[C@@H]1Cl)OCc1ccccc1"
quantity = "MIC90"
unit_spec = "µg/mL"
reported = 16

[[record]]
cpd_smiles = "CC1(C)S[C@@H]2[C@H](NC(=O)[C@H](N)c3ccc(O)cc3)C(=O)N2[C@H]1C(=O)O"
quantity = "MIC90"
unit_spec = "µg/mL"
reported = 8


Ask | Please look at CCOC(=O)/C=C1\NC(=O)[C@@H]1Cl and tell me its recorded MIC90 on Staphylococcus aureus.
Reply | 64

Ask | Write down measured MIC90 (Staphylococcus aureus) for this compound. C[C@@H](O[Si](C)(C)C(C)(C)C)[C@H]1C(=O)N/C1=C\C(=O)OCc1cc(O)cc(O)c1
Reply | 64

Ask | Give MIC90 for COc1cc(C(=O)O[C@H](C)[C@H]2C(=O)N/C2=C\C(=O)OCc2ccccc2)cc(OC)c1O tested on Staphylococcus aureus.
Reply | 128

Ask | Using Staphylococcus aureus as the test system, report measured MIC90 of CO/N=C(\C(=O)N[C@@H]1C(=O)N2C(C(=O)O)=C(CSc3nc(=O)c(O)nn3C)CS[C@H]12)c1csc(N)n1 .
Reply | 2
